target: ERK3 kinase domain (Homo sapiens); construct: The kinase domain of ERK3 (M9-I327) was subcloned into pNIC28–Bsa4; His6 (N, cleaved yes); made in house; host or cells: E. coli (co-expressed with lambda phosphatase); assay: Melting temperature assay (differential scanning fluorimetry, DSF); type: binding; details: read-out: ΔTm Initial Screen
reported.metric: ΔTm at 10 µM (°C)

[
  {
    "molecule": "O=C(Nc1cc(C(F)(F)F)cc(C(F)(F)F)c1)c1cc(Cl)ccc1O",
    "value.observed": 1.21
  },
  {
    "molecule": "CNC(=O)c1cc(Oc2ccc(NC(=O)Nc3ccc(Cl)c(C(F)(F)F)c3)cc2)ccn1",
    "value.observed": 1.2
  },
  {
    "molecule": "COc1cccc(-n2ncc3c(N/N=C/c4ccc(C(=O)NCCN(C)C)cc4)ncnc32)c1 [GW784307A]",
    "value.observed": 1.3
  },
  {
    "molecule": "CN1CCN(c2ccc(Nc3nccc(-c4cnn5ncccc45)n3)cc2)CC1",
    "value.observed": 1.61
  },
  {
    "molecule": "O=C1Nc2ccc(I)cc2C1=Cc1cc(Br)c(O)c(Br)c1",
    "value.observed": 1.36
  }
]

* * *

target: ERK3 kinase domain (Homo sapiens, UniProt Q16659); construct: The kinase domain of ERK3 (M9-I327) was subcloned into pNIC28–Bsa4; His6 (N, cleaved yes); made in house; host or cells: E. coli (co-expressed with lambda phosphatase); assay: Melting temperature assay (differential scanning fluorimetry, DSF); assay type: binding; conditions: Table S2; average of two repeats ± standard deviation; read-out: ΔTm Follow Up
Sequence (Q16659 9-327): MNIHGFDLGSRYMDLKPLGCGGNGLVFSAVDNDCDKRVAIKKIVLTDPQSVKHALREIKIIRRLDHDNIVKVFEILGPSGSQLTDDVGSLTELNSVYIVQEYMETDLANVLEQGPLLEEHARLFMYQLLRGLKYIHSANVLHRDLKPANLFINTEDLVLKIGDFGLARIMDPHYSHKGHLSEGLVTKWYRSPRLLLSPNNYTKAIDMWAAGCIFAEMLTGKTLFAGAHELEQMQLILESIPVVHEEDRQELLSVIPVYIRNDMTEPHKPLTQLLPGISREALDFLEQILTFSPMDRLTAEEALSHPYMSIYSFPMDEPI

[
  {
    "molecule": "CN1CCN(c2ccc(Nc3nccc(-c4cnn5ncccc45)n3)cc2F)CC1 [CAF052]",
    "uom": "°C",
    "ΔTm at 10 µM": 2.5
  },
  {
    "molecule": "CN1CCN(c2ccc(Nc3nccc(-c4cnn5ncccc45)n3)cc2C#N)CC1 [CAF078]",
    "uom": "°C",
    "ΔTm at 10 µM": 3.3
  },
  {
    "molecule": "C=CC(=O)Nc1cc2c(Nc3ccc(F)c(Cl)c3)ncnc2cc1OCCCN1CCOCC1 [Canertinib]",
    "uom": "°C",
    "ΔTm at 10 µM": 3.1
  },
  {
    "molecule": "COc1ccc(Cl)c(Nc2nc3ccccc3nc2NS(=O)(=O)c2cccc(NC(=O)C(C)(C)N)c2)c1 [XL147]",
    "uom": "°C",
    "ΔTm at 10 µM": 1.2
  },
  {
    "molecule": "O=C(Nc1c[nH]nc1-c1nc2ccc(CN3CCOCC3)cc2[nH]1)NC1CC1 [AT9283]",
    "uom": "°C",
    "ΔTm at 10 µM": 3.1
  },
  {
    "molecule": "NS(=O)(=O)c1ccc(N/N=C2\\C(=O)Nc3ccc4ncccc4c32)cc1 [GW305178X]",
    "uom": "°C",
    "ΔTm at 10 µM": 1.1
  },
  {
    "molecule": "CCn1cc(-c2ccnc3[nH]c(-c4cccc(CN(C)C)c4)cc23)c(-c2ccc(NC(=O)N(C)C)cc2)n1 [GSK1070916]",
    "uom": "°C",
    "ΔTm at 10 µM": 0.1
  },
  {
    "molecule": "COc1cccc(-c2c[nH]c3c(N/N=C/c4ccncc4)ncnc23)c1 [GW814408X]",
    "uom": "°C",
    "ΔTm at 10 µM": 2.5
  }
]
